system tested: T1, human PTH/PTHrP receptor (human, UniProt Q03431 27-593)
T1 construct: whole, on cells; Transiently expressed on COS-7 cells
T1 sequence (looked up): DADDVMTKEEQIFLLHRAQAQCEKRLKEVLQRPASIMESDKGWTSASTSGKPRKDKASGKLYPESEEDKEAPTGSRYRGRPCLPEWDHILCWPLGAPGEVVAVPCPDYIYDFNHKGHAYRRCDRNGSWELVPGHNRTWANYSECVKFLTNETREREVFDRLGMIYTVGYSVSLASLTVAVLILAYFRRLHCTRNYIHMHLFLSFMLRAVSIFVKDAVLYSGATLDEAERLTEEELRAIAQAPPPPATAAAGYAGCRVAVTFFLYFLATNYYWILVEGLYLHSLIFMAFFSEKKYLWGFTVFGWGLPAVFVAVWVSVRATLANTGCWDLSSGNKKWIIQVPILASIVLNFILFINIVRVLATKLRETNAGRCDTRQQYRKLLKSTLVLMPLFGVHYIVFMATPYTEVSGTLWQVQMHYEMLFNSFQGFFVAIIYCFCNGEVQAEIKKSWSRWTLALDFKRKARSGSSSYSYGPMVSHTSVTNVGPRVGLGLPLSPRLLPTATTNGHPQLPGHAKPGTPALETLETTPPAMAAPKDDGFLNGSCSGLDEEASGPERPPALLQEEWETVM
assay summary: radioligand competition (tracer 125I-[Nle8,21,Tyr34]rPTH-(1-34)NH2) on transfected COS-7 cells, RT 2 h
pIC50: −log10 of the molar value. Where no end group is shown, it is not given here.
The following binders are shown together with reported pIC50 values.

Example binders with recorded pIC50:
[[record]]
binder = "IQDLRRRFFLHHLIAEIHTAEY-NH2 [[Y36]hPTHrP-(15-36)NH2]"
result = "< 5.00"

[[record]]
binder = "IQDLRRREWLHHLIAEIHTAEY-NH2 [[E22, W23, Y36]hPTHrP-(15-36)NH2]"
result = "< 5.00"

[[record]]
binder = "IQDLRRRFWLHHLIAEIHTAEY-NH2 [[W23, Y36]hPTHrP-(15-36)NH2]"
result = "< 5.00"


Here's the next entry for you.
Q: Let me know recorded pIC50 for AVSEHQLLHDKGKSIQDLRRRFFLRKKLQDVHNY-NH2 (Synthetic PTH/PTHrP hybrid ligand; also called PTHrP-(1-23)/PTH-(24-34)) [Hybrid-3 hPTHrP-(1-23)/[Y34]hPTH-(24-34)NH2] , thanks.
Ans: 6.00
